- Assay: in vivo
- Particulars: male, Sprague Dawley, rat, sc, 1 mg/kg
Bridge positions count the residues as written; N and C are the ends. Square brackets hold non-standard residues; d marks the D form. Triazole bridges read from a SMILES are 1,4-linked. Peptide text beside a SMILES is read from it. Orn(N3) = [N-]=[N+]=NCCC[C@H](N)C(=O)O; Cit = NC(=O)NCCC[C@H](N)C(=O)O; Pra = C#CC[C@H](N)C(=O)O
Readout Kind: Cmax

I would be grateful if you could share the reported Cmax for C[C@@H](O)[C@@H]1NC(=O)[C@@H]2Cc3cn(nn3)CCC[C@@H](C(=O)N[C@@H](Cc3ccc(O)cc3)C(=O)O)NC(=O)[C@H](CCC(N)=O)NC(=O)[C@H](Cc3c[nH]c4ccccc34)NC(=O)[C@H](CCCNC(N)=O)NC(=O)[C@H](CSSC[C@H](NC(=O)CN)C(=O)N2)NC(=O)[C@H](CCCNC(=N)N)NC(=O)[C@@H]2CCCN2C(=O)[C@H](CC(=O)O)NC1=O [Ia] (H-GC[Pra]TDPRC[Cit]WQ[Orn(N3)]Y-OH; disulfide 2-8; triazole 3-12) .
648 ng/mL

---

- Assay: in vivo
- Particulars: male, Sprague Dawley, rat, sc, 1 mg/kg
Bridge positions count the residues as written; N and C are the ends. Square brackets hold non-standard residues; d marks the D form. Triazole bridges read from a SMILES are 1,4-linked. Peptide text beside a SMILES is read from it. Orn(N3) = [N-]=[N+]=NCCC[C@H](N)C(=O)O; Cit = NC(=O)NCCC[C@H](N)C(=O)O; Pra = C#CC[C@H](N)C(=O)O
Readout Kind: Tmax (min)
Numbers only, in min.

Quick one: Tmax for C[C@@H](O)[C@@H]1NC(=O)[C@@H]2Cc3cn(nn3)CCC[C@@H](C(=O)N[C@@H](Cc3ccc(O)cc3)C(=O)O)NC(=O)[C@H](CCC(N)=O)NC(=O)[C@H](Cc3c[nH]c4ccccc34)NC(=O)[C@H](CCCNC(N)=O)NC(=O)[C@H](CSSC[C@H](NC(=O)CN)C(=O)N2)NC(=O)[C@H](CCCNC(=N)N)NC(=O)[C@@H]2CCCN2C(=O)[C@H](CC(=O)O)NC1=O [Ia] (H-GC[Pra]TDPRC[Cit]WQ[Orn(N3)]Y-OH; disulfide 2-8; triazole 3-12) ?
15

---

- Assay: in vivo
- Particulars: male, Sprague Dawley, rat, sc, 1 mg/kg
Bridge positions count the residues as written; N and C are the ends. Square brackets hold non-standard residues; d marks the D form. Triazole bridges read from a SMILES are 1,4-linked. Peptide text beside a SMILES is read from it. Orn(N3) = [N-]=[N+]=NCCC[C@H](N)C(=O)O; Cit = NC(=O)NCCC[C@H](N)C(=O)O; Pra = C#CC[C@H](N)C(=O)O
Readout Kind: half-life (min)
Answers are plain numbers, in min.

Which measured half-life value corresponds to C[C@@H](O)[C@@H]1NC(=O)[C@@H]2Cc3cn(nn3)CCC[C@@H](C(=O)N[C@@H](Cc3ccc(O)cc3)C(=O)O)NC(=O)[C@H](CCC(N)=O)NC(=O)[C@H](Cc3c[nH]c4ccccc34)NC(=O)[C@H](CCCNC(N)=O)NC(=O)[C@H](CSSC[C@H](NC(=O)CN)C(=O)N2)NC(=O)[C@H](CCCNC(=N)N)NC(=O)[C@@H]2CCCN2C(=O)[C@H](CC(=O)O)NC1=O [Ia] (H-GC[Pra]TDPRC[Cit]WQ[Orn(N3)]Y-OH; disulfide 2-8; triazole 3-12) ?
30
